growth for assorted molecules
Tested on: 786-0 renal
Test: NCI-60 one-dose screen, 48 h (100 = growth as untreated, 0 = no growth, -100 = all killed)
Conditions: 10 µM unless noted
About 83,000 compounds went through this panel and 20% of them were active in at least one assay; those are over-represented in the sample as a whole.
property_measured: growth (%)

O=C(C[n+]1ccnc2ccccc21)c1ccc(O)c(O)c1 44.3
CCNCCCn1c2c(c3cc(OC)c(OC)cc3c1=O)C(=O)c1cc(OC)cnc1-2 -3.55
COc1cc2c3c(n(CCCNC4CCCCC4)c(=O)c2cc1OC)-c1cc2c(cc1C3=O)OCO2 -82.8
COc1cc(/C=N/n2cnc3oc(-c4ccccc4)cc3c2=N)cc(CN2CCOCC2)c1O 45.6
CNC(=O)c1cc(Oc2ccc3nc(NC(=O)c4cccc(C(F)(F)F)c4)sc3c2)ccn1 97.2
CCCCSc1nnc(-c2ccc(-c3ccc(Cl)cc3)nc2C)o1 96.9
COc1ccc(/C=C/C(=O)c2nnn(-c3ccc(C(=O)O)cc3)c2C)cc1OC 98.4
C=CCn1c(SCC(=O)Nc2cccc(C(=O)/C=C/c3ccccc3Cl)c2)nc2ccccc2c1=O 88
CC1=CC(=O)CC(C)(C)[C@@]1(O)/C=C/C(C)=C\C(=O)O -43.2
COc1cc(/C=C2\SC(=O)NC2=O)ccc1OCC(=O)Nc1ccc(C(=O)/C=C/c2cc3ccccc3nc2Cl)cc1 101

Source: PubChem BioAssay (NCI)
